measured-on: Albumin (Bos taurus) (UniProt P02769)
Sequence (P02769 whole entry, looked up): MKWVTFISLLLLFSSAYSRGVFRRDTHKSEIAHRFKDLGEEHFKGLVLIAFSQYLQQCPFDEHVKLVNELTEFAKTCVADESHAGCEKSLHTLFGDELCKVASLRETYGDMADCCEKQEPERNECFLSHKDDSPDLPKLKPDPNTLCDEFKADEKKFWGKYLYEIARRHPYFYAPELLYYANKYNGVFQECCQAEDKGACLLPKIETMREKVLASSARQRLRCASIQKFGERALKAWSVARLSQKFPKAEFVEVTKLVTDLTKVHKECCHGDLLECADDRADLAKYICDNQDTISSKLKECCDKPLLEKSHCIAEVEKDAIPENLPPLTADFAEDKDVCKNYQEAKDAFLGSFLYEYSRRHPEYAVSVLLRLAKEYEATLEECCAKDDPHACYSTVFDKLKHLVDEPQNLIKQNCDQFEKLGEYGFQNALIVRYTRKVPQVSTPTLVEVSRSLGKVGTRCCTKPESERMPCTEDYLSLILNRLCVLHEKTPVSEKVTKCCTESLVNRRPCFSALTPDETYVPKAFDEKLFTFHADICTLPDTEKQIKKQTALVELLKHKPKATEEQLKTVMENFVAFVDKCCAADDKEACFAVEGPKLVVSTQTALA
experiment-notes: bovine serum albumin binders on microarray, profiling panel, artefact control for SMM control protein annotation, biochemical, small-molecule microarray, Alexa647 label, 635/667 nm fluorescence (AID 1118);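 note: score merges 667 nm emission intensity and signal-to-noise per printed compound spot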
conditions: BSA-A647 binding, fluorescence 635 nm, higher = more signal
List of composite z-score values.
Just the number.

Worked cases, composite z-score given:
INSERT INTO measurements (molecule, measured_on, property_label, assay_value) VALUES
  ('CC(C)C(CO)N1C(=O)[C@@H]2C3C(=O)OCCC/C=C\[C@H]3OC23C=CCN(C(C)(C)C)C(=O)[C@@H]13 (stereo partly drawn)', 'Albumin (Bos taurus) (UniProt P02769)', 'composite z-score', -0.632),
  ('COC(=O)c1c(CC[C@@H](CO)NC(=O)N[C@H](Cn2cc(C3(O)CCCCC3)nn2)C(C)C)oc(C(C)=O)c1C(=O)OC', 'Albumin (Bos taurus) (UniProt P02769)', 'composite z-score', -0.471);

Query block: Hi! What's the reported composite z-score for Cc1ccc(S[C@]2(C(=O)O)CC(=O)N(C3Cc4ccccc4C3)[C@@H]2c2ccc(CO)cc2)cc1 on Albumin (Bos taurus) (UniProt P02769)?
Result block: 0.0322
